# Test system: TMD-8 cells
# test protocol: Cell proliferation measurement in TMD-8 cells
# Format: cell-based, human
# conditions used: Homo sapiens, TMD8, 72 h, Cell Titer Glo, read-out: IC50 with respect to proliferation inhibition in TMD-8 cells
In this section, each of the molecules is paired with its reported IC50.
Form entry: value (µM) — number only.

1) COc1cc2nn(C3CCNCC3)cc2cc1NC(=O)c1cccc(C(F)(F)F)n1
8.61

Input: Determine from records and report IC50 for CC(C)(O)c1cc2nn(C3CCS(=O)(=O)CC3)cc2cc1NC(=O)c1cccc(C(F)(F)F)n1
Output: 18.8

Input: Tell me IC50 reported for COc1cc2nn(C3CCN(C4COC4)CC3)cc2cc1NC(=O)c1cccc(C(F)(F)F)n1
Output: 23.3

Input: In one line, give reported IC50 of the entry COc1cc2nn(C3CCOCC3)cc2cc1NC(=O)c1cccc(N2CCOCC2)n1 .
Output: 28.1

Input: Supply measured IC50 of COc1cc2nn(C3CC[S+]([O-])CC3)cc2cc1NC(=O)c1cccc(C(F)(F)F)n1 (racemic) in your reply.
Output: 11.5

Input: Recall and state the measured IC50 for COc1cc2nn(C3CCN(C)CC3)cc2cc1NC(=O)c1cccc(C(F)(F)F)n1 .
Output: 4.08

====

# target or test system: human IRAK4 (Homo sapiens (Human))
pIC50: −log10 of the molar value.
Threshold rule: pIC50 greater than or equal to 8 is Met; below that, Not met.

Consider the following illustrative entries.
1) COc1cc2nn(C3CC[S+]([O-])CC3)cc2cc1NC(=O)c1cccc(C(F)(F)F)n1 (racemic)
Met
2) COc1cc2nn(C3CCOCC3)cc2cc1NC(=O)c1nc(-c2ccncc2)no1
Not met
3) O=C(Nc1cc2cn(C3CCS(=O)(=O)CC3)nc2cc1OCC1CC1)c1cccc(C(F)(F)F)n1
Not met
4) COc1cc2nn(C3CCS(=N)(=O)CC3)cc2cc1NC(=O)c1cccc(C(F)(F)F)n1 (single isomer, unassigned)
Met
5) CC(C)(O)c1cccc(C(=O)Nc2cc3cn(C4CCS(=O)(=O)CC4)nc3cc2Cl)n1
Not met
6) COc1cc2nn(C3CCN(C)CC3)cc2cc1NC(=O)c1cccc(C(F)(F)F)n1
Met
7) COc1cc2nn(C3CCN(C4CCN(C)CC4)CC3)cc2cc1NC(=O)c1cccc(C(F)(F)F)n1
Met
8) CC(C)(O)c1cc2nn([C@@H]3CCOC3)cc2cc1NC(=O)c1cccc(C(F)(F)F)n1
Not met
9) COc1cc2nn(C3CCN(C(=O)CO)CC3)cc2cc1NC(=O)c1cccc(C(F)(F)F)n1
Met
10) COc1cc2nn(C3CCOCC3)cc2cc1NC(=O)c1cccc(C(C)(C)O)n1
Met

Input: Does COC(=O)c1cc2nn(C3CCN(C)CC3)cc2cc1NC(=O)c1cccc(C(F)(F)F)n1 have a reported pIC50 of at least 8?
Output: Met

Input: For this molecule, is measured pIC50 8 or higher? COc1cc2nn(C3CCOCC3)cc2cc1NC(=O)c1ccnc(C(C)C)n1
Output: Not met

====

# Test system: TMD-8 cells
# test protocol: Cell proliferation measurement in TMD-8 cells
# Type: cell-based, human
# conditions used: Homo sapiens, TMD8, 72 h, Cell Titer Glo, read-out: IC50 with respect to proliferation inhibition in TMD-8 cells
test readout: pIC50
Just the number, please; pIC50 means minus log10 of the concentration in mol/L.

Examples from the recorded data:
1) COc1cc2nn(C3CCS(=N)(=O)CC3)cc2cc1NC(=O)c1cccc(C(F)(F)F)n1 (single isomer, unassigned) [Example 21]
4.83
2) COc1cc2nn(C3CCOCC3)cc2cc1NC(=O)c1cccc(C(F)F)n1 [Example 23]
5.07
3) COc1cc2nn(C3CCOCC3)cc2cc1NC(=O)c1cccc(C(C)(C)O)n1 [Example 28]
5.45
4) COc1cc2nn(C3CCN(CCO)CC3)cc2cc1NC(=O)c1cccc(C(F)(F)F)n1 [Example 13]
5.23
5) CC(C)(O)c1cc2nn(C3CCNCC3)cc2cc1NC(=O)c1cccc(C(F)(F)F)n1 [Example 46]
4.85
6) COc1cc2nn(C3CCOCC3)cc2cc1NC(=O)c1cccc(C(F)(F)F)n1 [Example 1]
4.55
7) COc1cc2nn(C3CCN(C(=O)CO)CC3)cc2cc1NC(=O)c1cccc(C(F)(F)F)n1 [Example 5]
4.81

// next item, pIC50 requested
Input: Please indicate pIC50 recorded for COc1cc2nn([C@@H]3C[C@@H]4C[C@H]3CN4C)cc2cc1NC(=O)c1cccc(C(F)(F)F)n1 (relative stereo) [Example 18]
Output: 5.46

====

Reported pIC50 values, human IRAK4 (Homo sapiens (Human), UniProt Q9NWZ3).
Reminder that pIC50 means the negative base-10 logarithm of the concentration expressed in mol/L.

1) O=C(Nc1cc2cn(C3CCOCC3)nc2cc1Cl)c1cccc(C(F)F)n1
7.66

Input: Please supply the value of reported pIC50 for the item NC(=O)c1cc2nn(C3CCNCC3)cc2cc1NC(=O)c1cccc(C(F)(F)F)n1
Output: 9.00

Input: Given the compound CC(C)(O)CCN1CCC(n2cc3cc(NC(=O)c4cccc(C(F)(F)F)n4)c(C(N)=O)cc3n2)CC1 , write its reported pIC50.
Output: 8.40

Input: Using the record for COc1cc2nn(C3CCN(C4COC4)CC3)cc2cc1NC(=O)c1cccc(C(F)(F)F)n1 , state its measured pIC50.
Output: 8.52

Input: Specify measured pIC50 for COc1cc2nn(C3CCOCC3)cc2cc1NC(=O)c1csc(C)n1 .
Output: 8.00

====

Lab note: IC50 readings collected with human IRAK4 (Homo sapiens (Human), UniProt Q9NWZ3) for the following compounds.
Sequence (Q9NWZ3 whole entry): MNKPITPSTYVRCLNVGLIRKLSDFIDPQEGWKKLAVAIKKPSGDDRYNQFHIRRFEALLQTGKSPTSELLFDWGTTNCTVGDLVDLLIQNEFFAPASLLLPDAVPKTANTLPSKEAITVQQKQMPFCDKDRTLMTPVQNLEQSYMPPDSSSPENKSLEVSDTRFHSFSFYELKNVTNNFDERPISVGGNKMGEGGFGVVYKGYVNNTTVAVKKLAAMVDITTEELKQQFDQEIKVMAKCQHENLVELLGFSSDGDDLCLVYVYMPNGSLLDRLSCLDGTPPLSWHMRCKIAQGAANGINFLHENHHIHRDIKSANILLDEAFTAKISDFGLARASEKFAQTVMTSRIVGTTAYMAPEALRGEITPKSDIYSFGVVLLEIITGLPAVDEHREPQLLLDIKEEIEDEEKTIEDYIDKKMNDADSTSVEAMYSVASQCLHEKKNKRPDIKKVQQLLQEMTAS
Report only the number, with the unit nM understood.

Here's what some known entries look like.
1) CC(C)(O)c1cc2nn([C@H]3CCS(=O)(=O)C3)cc2cc1NC(=O)c1cccc(C(F)(F)F)n1 [Example 41]
16
2) COc1cc2nn(C3CCN(CC(F)(F)F)CC3)cc2cc1NC(=O)c1cccc(C(F)(F)F)n1 [Example 3]
7
3) COc1cc2nn(C3CCOCC3)cc2cc1NC(=O)c1cccc(N)n1 [Example 26]
6

Moving on to another compound below.
Input: State the measured IC50 (human IRAK4 (Homo sapiens (Human), UniProt Q9NWZ3)) of COc1cc2nn(C3CCOCC3)cc2cc1NC(=O)c1ccn(C(F)F)n1 [Example 51]
Output: 6
